system: Jurkat; experiment: cytotoxicity relative to DMSO, 18 h (ratio); higher = less cell death (drugs called cytotoxic fall below 1); details: 10000 nM
In this section we review reported cytotoxicity values for a set of compounds.

// below: answered compounds
>>> value_measured("O=C(CCCCCCNC(=O)c1cnc(N(c2ccccc2)c2ccccc2)nc1)NO")
0.881
>>> value_measured("COC1CC2CCC(C)C(O)(O2)C(=O)C(=O)N2CCCCC2C(=O)OC(C(C)CC2CCC(OCCO)C(OC)C2)CC(=O)C(C)C=C(C)C(O)C(OC)C(=O)C(C)CC(C)C=CC=CC=C1C (stereo not drawn)")
0.893

Continue with the next compound.
cytotoxicity lookup needed for "Cn1cc(CNCC2CCN(c3ncc(C(=O)NO)cn3)CC2)c2ccccc21" , thanks.
0.908
